Record form. Attribute: inhibition. Fill in for each entry.
- Experimental System: Cysteine protease ATG4B (Homo sapiens) (UniProt Q9Y4P1)
- Sequence (Q9Y4P1 whole entry, looked up): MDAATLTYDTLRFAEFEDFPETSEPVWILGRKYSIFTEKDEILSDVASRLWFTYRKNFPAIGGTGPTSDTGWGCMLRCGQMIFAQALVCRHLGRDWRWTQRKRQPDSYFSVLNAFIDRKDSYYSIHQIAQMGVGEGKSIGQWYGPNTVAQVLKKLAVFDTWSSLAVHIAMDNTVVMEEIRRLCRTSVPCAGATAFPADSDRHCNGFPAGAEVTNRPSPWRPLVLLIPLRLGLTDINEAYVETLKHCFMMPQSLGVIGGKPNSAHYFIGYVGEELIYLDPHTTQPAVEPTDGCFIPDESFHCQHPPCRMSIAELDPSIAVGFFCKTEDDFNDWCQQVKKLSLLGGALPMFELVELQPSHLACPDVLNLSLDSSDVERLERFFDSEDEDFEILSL
- Protocol Summary: ATG4B protease inhibitors, primary screen, biochemical, fluorescence, uHTS (AID 504462)
- Test Settings: ATG4B cleavage of LC3-PLA2, NBD-HPC fluorescence, 1 h; at 8.33 µM; hits give high values
About 1,700 (0.5%) of roughly 340,000 compounds were called active. The full list was thinned out, with actives kept by preference.
Give bare numbers, in %.

For orientation, consider the following solved cases.
Q. Endpoint output: inhibition of `NC(=O)CSc1nnc(NC(=O)c2ccc3ccccc3c2)s1` . Value?
A. 5.71

Q. Another: `CSc1nc(-c2ccco2)nn1C(=O)c1ccccc1Cl`
A. 0.74

Please go through the list and note inhibition for each compound.
1. CCOc1ccc(-n2c(SCC(=O)OC)nc3sc4c(c3c2=O)CCN(C)C4)cc1
2. CN(C)S(=O)(=O)c1ccc(N/C=C(\[N+](=O)[O-])S(=O)(=O)c2ccccc2)cc1
3. O=C(CNC(=O)c1ccccc1)NCC(=O)OCc1ccc(Cl)cc1
4. COc1cccc(-c2coc3cc4oc(=O)c(CC(=O)O)c(C)c4cc23)c1
5. CCN(CC)S(=O)(=O)c1ccc(N(C)Cc2ccc(C(F)(F)F)cc2)nc1
6. O=C1c2ccccc2C(=O)N1CCCCCCN1C(=O)c2ccccc2C1=O

A.
1: 5.88; 2: 0.88; 3: -3.69; 4: 2.29; 5: -7.77; 6: 2.67

Please go through the list and note inhibition for each compound.
1. O=C(NCC1COc2ccccc2O1)C1(c2ccccc2)CCCC1 (stereo not given)
2. Cc1cc(C)nc(SCc2ccccc2C#N)n1

A.
1: 4.25; 2: 4.39

Just for reference, PubChem BioAssay AID504462 is where these values come from.
